B1: Hairpin Ribozyme (parent)
chain: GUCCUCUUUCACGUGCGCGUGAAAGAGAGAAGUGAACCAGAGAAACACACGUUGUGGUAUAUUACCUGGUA

# Variants of: B1
# TEST NAME: self-cleavage, relative activity (ratio to wild type); higher = more cleavage; co-transcriptional
Let's look at some variants and their measured self-cleavage.
Please give only the number in your answer, with no unit.

Previously resolved entries follow.
* C4A A36U | 0.197
* G29A A43G | 0.205
* C3G G17C | 0.198
* A11G G27C | 0.198
* G57U C65A | 0.271

# self-cleavage of C16A U52C = 0.841

The recorded self-cleavage for G32C A47U is 0.0919

Notebook: C50G U67C , self-cleavage read as 0.0994

Item: G29C G56U | self-cleavage: 0.0807

Measured self-cleavage, G19C U67G : 0.227

Field self-cleavage (entry A36G G69C ) reads 0.449

Sure, the documented self-cleavage for U7G A35U is 0.921

Consider C48U G68U . Its measured self-cleavage is 0.097

# self-cleavage of C12G U52A = 0.922

For reference, reported self-cleavage for C48A U53A stands at 0.228

Just so you know, measured self-cleavage for A26U U67A came out at 0.196

Kindly note the recorded self-cleavage for C12U A23U , which is 0.807

Query A30C C66A yields self-cleavage of 0.0863

Just so you know, measured self-cleavage for G13C G17U came out at 0.492

Data point: U7G G68A ; self-cleavage = 0.3

// self-cleavage lookup, variant = U14C U58G , result: 0.545
